B1: C22orf15 (parent)
chain: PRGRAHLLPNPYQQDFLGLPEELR

# Variants of: B1
# measurement.description: protein stability index of a GFP-peptide fusion (GPS, HEK-293T) (PSI 1-6); higher = more stable;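 further: lentivirally expressed fusions sorted by FACS into six bins by GFP to DsRed ratio, PSI derived from sequencing read proportions per bin multiplied by bin number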
# measurement.setup: c terminus: a fixed tail appended
outcome.measure: protein stability index
Respond numerically, and do not add a unit to the figure.

### Prompt For Y12H , what is its reported protein stability index?
### Response 4.02

### Prompt For N10G , what is its reported protein stability index?
### Response 4

### Prompt For Q14K , what is its reported protein stability index?
### Response 4.01

Here is the next item to consider.
### Prompt For G18S , what is its reported protein stability index?
### Response 3.94
